experimental target: Human C3 (Complement tech cat #A113c) (human, UniProt P01024 23-1663)
Sequence (P01024 23-1663 limits assumed): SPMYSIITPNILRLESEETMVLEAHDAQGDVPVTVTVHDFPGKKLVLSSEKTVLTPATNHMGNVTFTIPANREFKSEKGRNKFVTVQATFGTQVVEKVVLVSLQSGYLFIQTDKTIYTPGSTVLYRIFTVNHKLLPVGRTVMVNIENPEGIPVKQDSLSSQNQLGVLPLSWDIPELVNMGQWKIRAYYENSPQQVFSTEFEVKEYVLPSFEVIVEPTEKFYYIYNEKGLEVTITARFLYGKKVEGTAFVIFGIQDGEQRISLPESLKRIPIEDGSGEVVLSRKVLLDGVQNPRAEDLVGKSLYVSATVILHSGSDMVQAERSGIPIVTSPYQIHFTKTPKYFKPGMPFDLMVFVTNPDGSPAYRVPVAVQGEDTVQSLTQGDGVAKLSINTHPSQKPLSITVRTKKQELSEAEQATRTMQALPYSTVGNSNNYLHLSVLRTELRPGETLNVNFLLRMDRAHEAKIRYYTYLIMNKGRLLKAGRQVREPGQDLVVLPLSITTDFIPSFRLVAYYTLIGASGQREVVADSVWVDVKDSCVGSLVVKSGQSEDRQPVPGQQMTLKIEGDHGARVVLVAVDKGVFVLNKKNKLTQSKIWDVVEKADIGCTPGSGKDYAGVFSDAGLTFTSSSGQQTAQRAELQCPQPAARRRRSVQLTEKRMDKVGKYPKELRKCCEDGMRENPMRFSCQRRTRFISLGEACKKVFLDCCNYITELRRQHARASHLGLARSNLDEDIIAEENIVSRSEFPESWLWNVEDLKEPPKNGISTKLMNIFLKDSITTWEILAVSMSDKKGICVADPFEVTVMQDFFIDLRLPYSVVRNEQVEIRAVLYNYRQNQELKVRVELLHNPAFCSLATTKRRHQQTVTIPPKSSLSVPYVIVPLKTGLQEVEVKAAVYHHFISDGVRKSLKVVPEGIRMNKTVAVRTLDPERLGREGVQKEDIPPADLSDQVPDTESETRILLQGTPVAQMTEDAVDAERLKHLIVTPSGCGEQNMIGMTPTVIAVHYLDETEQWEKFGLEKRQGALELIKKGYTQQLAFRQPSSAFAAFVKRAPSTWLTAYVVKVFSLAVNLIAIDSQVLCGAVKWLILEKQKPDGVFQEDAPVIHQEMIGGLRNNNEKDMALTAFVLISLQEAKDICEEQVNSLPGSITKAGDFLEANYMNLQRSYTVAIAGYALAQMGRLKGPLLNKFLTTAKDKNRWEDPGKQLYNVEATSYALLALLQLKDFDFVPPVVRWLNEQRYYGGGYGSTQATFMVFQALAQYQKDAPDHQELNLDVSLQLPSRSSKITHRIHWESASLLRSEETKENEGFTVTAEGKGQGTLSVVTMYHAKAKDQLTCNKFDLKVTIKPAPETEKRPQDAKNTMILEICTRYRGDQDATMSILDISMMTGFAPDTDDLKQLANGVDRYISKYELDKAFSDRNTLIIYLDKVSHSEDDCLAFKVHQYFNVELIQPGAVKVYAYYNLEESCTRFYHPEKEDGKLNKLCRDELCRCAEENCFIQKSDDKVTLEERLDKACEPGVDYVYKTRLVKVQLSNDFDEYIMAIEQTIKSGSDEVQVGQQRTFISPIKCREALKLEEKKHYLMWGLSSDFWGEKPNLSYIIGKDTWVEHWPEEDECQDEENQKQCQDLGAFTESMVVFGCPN
assay procedure: cell-based or functional assay
Positions of bridges follow the written chain, without caps; N, C: chain ends. Non-standard residues stand in square brackets, D forms with d. Trp(1-Me) = Cn1cc(C[C@H](N)C(=O)O)c2ccccc21; Sar = CNCC(=O)O
property measured: inhibition of hemolysis IC50

1) Ac-EGSAICIWQDWGEHRC[Sar]E-NH2 (disulfide 6-16; SMILES CC[C@H](C)[C@H](NC(=O)[C@H](C)NC(=O)[C@H](CO)NC(=O)CNC(=O)[C@H](CCC(=O)O)NC(C)=O)C(=O)N[C@H]1CSSC[C@@H](C(=O)N(C)CC(=O)N[C@@H](CCC(=O)O)C(N)=O)NC(=O)[C@H](CCCNC(=N)N)NC(=O)[C@H](Cc2c[nH]cn2)NC(=O)[C@H](CCC(=O)O)NC(=O)CNC(=O)[C@H](Cc2c[nH]c3ccccc23)NC(=O)[C@H](CC(=O)O)NC(=O)[C@H](CCC(N)=O)NC(=O)[C@H](Cc2c[nH]c3ccccc23)NC(=O)[C@H]([C@@H](C)CC)NC1=O) [Compound 28] | < 100 nM

Now look at this one.
The value of inhibition of hemolysis IC50 measured for the binder Ac-FCI[Trp(1-Me)]QDWGEHRCTGAES-NH2 (disulfide 2-12; SMILES CC[C@H](C)[C@@H]1NC(=O)[C@@H](NC(=O)[C@H](Cc2ccccc2)NC(C)=O)CSSC[C@@H](C(=O)N[C@H](C(=O)NCC(=O)N[C@@H](C)C(=O)N[C@@H](CCC(=O)O)C(=O)N[C@@H](CO)C(N)=O)[C@@H](C)O)NC(=O)[C@H](CCCNC(=N)N)NC(=O)[C@H](Cc2c[nH]cn2)NC(=O)[C@H](CCC(=O)O)NC(=O)CNC(=O)[C@H](Cc2c[nH]c3ccccc23)NC(=O)[C@H](CC(=O)O)NC(=O)[C@H](CCC(N)=O)NC(=O)[C@H](Cc2cn(C)c3ccccc23)NC1=O) [Compound 61] turned out to be < 100 nM
